These measurements were taken from PubChem BioAssay AID1159580.

test: chemical genetic growth profiling, strain panel (AID 1159580);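 note: tested at 20 µM; growth read once vehicle control cultures reached saturation at 30 °C; 1 = growth at the plate median or of vehicle wells; lower values mean less growth of the strain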; conditions: S. cerevisiae deletion strains, growth OD, locus YER155C, strain BEM2, active compounds read low
In all, about 5,500 compounds went through this assay and about 2,000 (36%) were called active. About 18% were inconclusive and are not listed. Some of the results follow.

MOLECULE	normalized growth
CN(C)[C@@H]1C(=O)C(C(N)=O)=C(O)[C@@]2(O)C(=O)C3=C(O)c4c(O)ccc(Cl)c4[C@@H](O)[C@H]3C[C@@H]12	1.01
CNNC	1.03
C=C1c2cccc(O)c2C(O)=C2C(=O)[C@]3(O)C(O)=C(C(N)=O)C(=O)[C@@H](N(C)C)[C@@H]3[C@@H](O)[C@H]12	1.01
C[C@H]1c2cccc(O)c2C(O)=C2C(=O)[C@]3(O)C(O)=C(C(N)=O)C(=O)[C@@H](N(C)C)[C@@H]3[C@@H](O)[C@@H]21	1.01
CC1(C)CC2C1CC[C@]1(CBr)CCC3C(CC(=O)O)C(=O)O[C@@]32C1 (stereo not given in full)	0.986
